- System name: T1, 4H3974-bA
- T1 chain: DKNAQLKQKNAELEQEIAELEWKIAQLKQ
- Method notes: two-hybrid library CCNG1;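 further: natural log of median RNA to DNA barcode read ratio; higher means stronger binding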
Property measured: interaction score

Below: 3 binders and their reported interaction score.
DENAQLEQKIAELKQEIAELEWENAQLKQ [4H1348-bA] :: 0.469
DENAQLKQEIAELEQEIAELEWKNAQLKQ [4H1544-bA] :: 0.562
DKNAQLKQKNAELEQEIAELEWKIAQLKQ [4H3974-bA] :: -0.293

A = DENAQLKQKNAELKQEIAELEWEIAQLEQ [4H1985-bA]
B = DKIAQLKQENAELEQKNAELKWEIAQLEQ [4H2745-bA]
Q: Look at A and B . Which one has the lower recorded interaction score number? Refer to your chosen entry by its label in the reply.
Result: A

P = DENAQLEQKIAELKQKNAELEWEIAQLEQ [4H1393-bA]
Q = DKNAQLKQEIAELEQKIAELKWENAQLKQ [4H3628-bA]
R = DKNAQLEQEIAELEQKNAELKWEIAQLEQ [4H3129-bA]
S = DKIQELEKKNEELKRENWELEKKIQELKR [4H2518-bH]
Q: Sort by interaction score, descending. A complete answer lists every label in the requested sequence.
Result: Q, S, P, R
